Target: Ca2+-activated anion channels (CAACs) (Mus musculus, UniProt O88870)
Construct: endogenous in cells
Sequence (O88870 1-551 R255K): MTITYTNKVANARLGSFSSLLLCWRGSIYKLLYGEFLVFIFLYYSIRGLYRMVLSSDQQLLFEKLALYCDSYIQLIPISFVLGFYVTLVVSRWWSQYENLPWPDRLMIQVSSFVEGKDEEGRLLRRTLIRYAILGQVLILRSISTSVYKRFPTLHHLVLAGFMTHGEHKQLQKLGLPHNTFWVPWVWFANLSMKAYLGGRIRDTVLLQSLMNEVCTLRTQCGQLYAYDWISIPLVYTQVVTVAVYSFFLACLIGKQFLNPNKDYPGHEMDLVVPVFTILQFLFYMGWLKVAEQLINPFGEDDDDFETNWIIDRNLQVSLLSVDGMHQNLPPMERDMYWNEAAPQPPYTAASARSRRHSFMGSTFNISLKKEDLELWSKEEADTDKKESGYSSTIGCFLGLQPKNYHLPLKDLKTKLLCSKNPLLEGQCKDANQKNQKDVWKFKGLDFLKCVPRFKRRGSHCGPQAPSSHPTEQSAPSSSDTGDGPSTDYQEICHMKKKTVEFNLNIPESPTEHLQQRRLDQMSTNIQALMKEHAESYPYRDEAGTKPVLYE
Assay: Gramicidin-D perforated patch clamp of TFLLR-induced inward current in cultured astrocytes
Conditions: cultured astrocytes, voltage-independent block
observed.property: IC50 (µM)

>>> measured("O=C(O)c1cccnc1Nc1cccc(C(F)(F)F)c1")
9.8
